Values compiled from the PolyMetriX glass transition set.

Reported glass transition temperature values follow for various molecules

MOLECULE	glass transition temperature, °C
*CCCCCCNC(=O)c1ccc(C(=O)N*)c(Oc2ccc(-c3ccccc3)cc2)c1 (repeat unit)	112.00
*OC(COC(=O)c1ccc(C)cc1C(*)=O)COc1ccc(/N=N/c2ccc(C#N)cc2)cc1 (repeat unit)	124.00
*CCCC(=O)Nc1ccc(Oc2ccc(Oc3ccc(NC(=O)CCCN4C(=O)c5ccc(C(=O)c6ccc7c(c6)C(=O)N(*)C7=O)cc5C4=O)cc3)cc2)cc1 (repeat unit)	178.00
*CC(*)c1cc(C(=O)Oc2ccc(OCCCC)cc2)ccc1C(=O)Oc1ccc(OCCCC)cc1 (repeat unit)	103.60
*c1ccc(S(=O)(=O)c2ccc(-n3c(=O)c4cc5c(=O)n(*)c(=O)c5cc4c3=O)cc2)cc1 (repeat unit)	350.00
*CC(*)CCCCCCCCCC (repeat unit)	-6.00
*Oc1ccc(C(C)(C)C)cc1Oc1ccc(S(=O)(=O)c2ccc(*)cc2)cc1 (repeat unit)	180.50
*c1cccc(N2C(=O)c3ccc(-c4ccc5c(c4)C(=O)N(*)C5=O)cc3C2=O)c1 (repeat unit)	333.2
